test: NCI Yeast Anticancer Drug Screen. Data for the rad50 strain (AID 155);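 further: 0% = growth of vehicle-only cultures of the same strain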; conditions: S. cerevisiae rad50 strain growth inhibition; at 50.0 µM; active compounds read high
Compounds without any hit were thinned out: in the full panel of roughly 79,000, 15% have a hit.
reported.endpoint: growth inhibition (%)
Give bare numbers, in %.

Examples from the recorded data:
Request: State the recorded growth inhibition for this entry: NC(=NCc1ccncc1)N/N=C\c1ccnc2ccccc12
Response: 4.15

Request: State the recorded growth inhibition for this entry: CCCCC(=O)c1cc2ccccc2c2ccccc12
Response: -3.7

Request: State the recorded growth inhibition for this entry: CCOC(=O)C1(Cc2ccc3c(c2)CCC3)Cc2cc3c(cc2C1=O)CCC3 (stereo not drawn)
Response: -11.1

Request: State the recorded growth inhibition for this entry: O=C(O)C12C3CCC(CC3)C1(C(=O)O)C1CCC2C1 (stereo not drawn)
Response: -57.6

For each listed entry, give its growth inhibition.
1. CCOC(OCC)C(=O)NNC(C)C
2. O=C(O)c1ccc(N=C=S)cc1O
3. COc1ccc2cc(NC(=O)N/N=C\c3ccc(Cl)cc3)ccc2c1
4. O=S(=O)(O)c1ccc(OCCCCCCCCCCOc2ccc(S(=O)(=O)O)cc2)cc1
5. CC(=O)NNC(=O)c1ccc(Br)cc1
6. O=C(Nc1ccccc1)c1ccccc1Cl
7. CON(C)C(C#N)=C(C#N)C#N
8. OCC1(CO)CCC=CO1

Response:
15.4
-1.95
33.2
-14.6
1.3
24.5
9.75
3.8

Request: State the recorded growth inhibition for this entry: CCC1(C)C(=O)NC(=O)N1C(C)=O (stereo not drawn)
Response: -5.1

====

experiment: NCI Yeast Anticancer Drug Screen. Data for the sgs1 mgt1 strain (AID 161);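 further: 0% = growth of cultures given vehicle only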; settings: S. cerevisiae sgs1 mgt1 strain, at 50.0 µM, active compounds read high
This is part of a sample that, as a whole, favours compounds with a hit. Of some 79,000 tested, about 15% had one in any assay.
What growth inhibition was measured for each of the following?
One number for each entry, in %.

For each listed entry, give its growth inhibition.
1. OCC(O)C(OC1OC(CO)C(O)C(O)C1O)c1nn(-c2ccc(F)cc2)c2nc3cc(Cl)c(Cl)cc3cc12 (stereo unspecified)
2. CCCCCCCCCCCCCCCC(=O)OCC1OC(n2cc(F)c(=O)[nH]c2=O)C(NC(=O)N(CCCl)N=O)C(O)C1O (stereo unspecified)
3. COCc1nc2c(=O)[nH]c(N)nc2[nH]c1=O
4. Cc1ccc(S(=O)(=O)Nn2c(O)c(C#N)c(-c3ccc(N(C)C)cc3)c(C#N)c2=O)cc1
5. COc1cc(C2OC[C@@H]3C(=O)OC[C@H]23)cc(O)c1OC (stereo partly specified)
6. CCCC1C(CC)C(NC)C(C#N)(C#N)C1(C#N)C#N (stereo unspecified)

Response:
-26.8
-16.6
-4.8
-44.5
-33.1
8.95

For each listed entry, give its growth inhibition.
1. C1CCC(NCSC2=NCCS2)CC1
2. COC1C=C(Br)C(=O)C(C)O1 (stereo unspecified)

Response:
0.05
-25.6

For each listed entry, give its growth inhibition.
1. CCC(c1ccc(OC)cc1)C(C(C)=O)c1ccc(OC)cc1 (stereo unspecified)
2. CC(C(=O)c1ccc(Cl)cc1)[n+]1cc(Br)cc(Br)c1 (stereo unspecified)
3. C/C(=N\O)C(=O)c1cccc([N+](=O)[O-])c1

Response:
-4.1
-9.3
15.4

====

test: NCI Yeast Anticancer Drug Screen. Data for the bub3 strain (AID 167); conditions: S. cerevisiae bub3 mutant strain, at 50.0 µM, active compounds read high
About 79,000 compounds went through this panel and 15% of them were active in at least one assay; those are over-represented in the sample as a whole.
reported.endpoint: growth inhibition (%)
Give bare numbers, in %.

Request: State the recorded growth inhibition for this entry: COc1cc(O)c(C(C)=O)c(OC)c1
Response: -0.2

Request: State the recorded growth inhibition for this entry: COc1cc([N+](=O)[O-])c(OC)cc1N
Response: -27.4

For each listed entry, give its growth inhibition.
1. COc1ccc2nc(-c3ccccc3)c(=O)[nH]c2c1
2. COc1ccc(OC)c2c(=O)cc(C)oc12
3. C/C(=N\O)c1ccc(OCc2cc(C(F)(F)F)cc(C(F)(F)F)c2)cc1

Response:
[25.1, -7.65, -2.15]

====

experiment: NCI Yeast Anticancer Drug Screen. Data for the cln2 rad14 strain (AID 165);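 further: 0% = growth equal to vehicle treated cultures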; details: S. cerevisiae cln2 rad14 strain, at 50.0 µM, active compounds read high
This is part of a sample that, as a whole, favours compounds with a hit. Of some 79,000 tested, about 15% had one in any assay. Calls of active or inactive are those of the source. Cut-off read from the data, not from the text of the source: active = growth inhibition above about 70%; inactive = the rest.
reported.endpoint: growth inhibition

Examples from the recorded data:
Request: State the recorded growth inhibition for this entry: O=C(CSSCC(=O)Nc1ccc(Br)cc1)Nc1ccc(Br)cc1
Response: 18.6% (inactive)

Request: State the recorded growth inhibition for this entry: CCOC(=O)c1ccc(Nc2cnc3ccc(C(F)(F)F)cc3n2)cc1
Response: 14.9% (inactive)

Request: State the recorded growth inhibition for this entry: CC(=O)Nc1cccc(OCCOc2ccccc2[N+](=O)[O-])c1
Response: 3.15% (inactive)

For each listed entry, give its growth inhibition.
1. CN1CCC(n2[nH]c(-c3ccccc3)c(Cc3ccccc3)c2=O)CC1
2. CC1Cn2c(nnc2-c2ccccc2O)S1 (configuration not stated)

Response:
10.6% (inactive)
-2.95% (inactive)

For each listed entry, give its growth inhibition.
1. CCN(CC)c1ccc2cc(-c3nc4ccccc4n3C)c(=O)oc2c1
2. CC(C)OC(=O)C(=O)Nc1cccc(Cl)c1
3. O=C(COc1ccc(Cl)cc1Cl)Nc1ccc2ccccc2c1
4. C[n+]1ccccc1/C=C/C=C/c1ccccc1
5. CSc1ncnc2c1ncn2CC(=O)C1CCC2C3CCC4=CC(=O)CCC4(C)C3CCC12C (configuration not stated)
6. CCOC(=O)CC1(C)SCCN1C(N)=O (configuration not stated)
7. CCOC(=O)Nc1ccccc1F

Response:
1. 6.55% (inactive)
2. -65.8% (inactive)
3. 18.9% (inactive)
4. -17.3% (inactive)
5. -29.6% (inactive)
6. -26.3% (inactive)
7. -6.15% (inactive)

====

experiment: NCI Yeast Anticancer Drug Screen. Data for the cln2 rad14 strain (AID 165);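 further: 0% = growth equal to vehicle treated cultures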; details: S. cerevisiae cln2 rad14 strain, at 50.0 µM, active compounds read high
The panel holds about 79,000 compounds, 15% with a hit somewhere; the sample as a whole holds those more often.
reported.endpoint: growth inhibition (%)
Give bare numbers, in %.

For each listed entry, give its growth inhibition.
1. CC(C(=O)O)C(C)(O)C(C)(C)C (stereo not given)
2. COC1=CCC2=C(C1)C1(C)CCCC(C)(CO)C1CC2 (stereo not given)
3. Cc1cccc(NC(=O)/C=C/c2ccc(N(CCC#N)CCC#N)cc2C)c1
4. C/C=N/Nc1ccccc1
5. CCN(CC)c1nc(NNS(=O)(=O)c2ccccc2)nc(N(CC)CC)n1
6. O=S(=O)(Nc1cccc(C2=NCCN2)c1)c1cccc2c(S(=O)(=O)Nc3cccc(C4=NCCN4)c3)cccc12
7. O=C(O)CCCCn1cnc2c(=S)nc[nH]c21

Response:
1. -37.4
2. 3.4
3. 6.6
4. 32.9
5. -13.1
6. -19
7. -7.3

====

experiment: NCI Yeast Anticancer Drug Screen. Data for the bub3 strain (AID 167); settings: S. cerevisiae bub3 mutant strain, at 50.0 µM, active compounds read high
This is part of a sample that, as a whole, favours compounds with a hit. Of some 79,000 tested, about 15% had one in any assay.
What growth inhibition was measured for each of the following?
Give bare numbers, in %.

Examples from the recorded data:
Request: State the recorded growth inhibition for this entry: Cc1c(C)c(C)c(CNNC(=S)Nc2cccc(Cl)c2)c(C)c1C
Response: -3.5

Request: State the recorded growth inhibition for this entry: C=C(C)[C@@H]1CC[C@]2(C)CC[C@]3(C)[C@H](CC[C@@H]4[C@@]5(C)CC[C@H](O)C(C)(C)[C@@H]5CC[C@]43C)[C@@H]12
Response: -6.05

Request: State the recorded growth inhibition for this entry: CCOC(=O)c1cnc2cc3c(cc2c1Nc1ccc2c(c1)OCO2)OCO3
Response: 0

Request: State the recorded growth inhibition for this entry: CCOc1cc(C)c2cccc(C)c2n1
Response: 2

Request: State the recorded growth inhibition for this entry: N#CC1(C(c2cccc3ccccc23)c2cccc3ccc4ccccc4c23)CC(=O)OC1=O (stereo unspecified)
Response: -2.55

For each listed entry, give its growth inhibition.
1. CCCCCCC1(C=O)C(=O)NC(=O)N1C (stereo unspecified)
2. O=c1[nH]cc(F)c(=S)[nH]1
3. CC1=Nc2c(C)noc2CC(c2ccccc2O)C1 (stereo unspecified)
4. CC(=O)N(C(=O)CC(=O)N1N=C(C)C(N=Nc2cccc([N+](=O)[O-])c2)C1=O)c1ccc(Cl)cc1 (stereo unspecified)
5. COc1ccc(/C=C2\N=C(c3ccccc3)OC2=O)c(OC)c1C
6. CC(C)C(=O)NCCc1ccccc1

Response:
[4.1, 6.2, -15.8, -15.1, 1.9, -0.45]
